- System: IGROV1 ovarian
- experimentNotes: NCI tumour cell line growth inhibition, 48 h
Quick reference: log10 TGI of the listed items.
measuredAttribute: log10 TGI (log10 of the value in µM)

[[record]]
compound = "COc1ccc(-c2cc(-c3ccc(Nc4nc(Nc5ccccc5)nc(Nc5ccc(Cl)cc5)n4)cc3)nc(N)c2C#N)cc1"
measuredattribute = "log10 TGI"
numericresult = 0.15

[[record]]
compound = "CC1=C(C(=O)OCCO[N+](=O)[O-])C(c2cccc([N+](=O)[O-])c2)C(C(=O)OC(C)C)=C(C)N1 (stereo not given)"
measuredattribute = "log10 TGI"
numericresult = 1.53

[[record]]
compound = "O=C1NC(N/N=C/c2ccccc2)=N/C1=C\\c1ccco1"
measuredattribute = "log10 TGI"
numericresult = 1.76

[[record]]
compound = "O=C1/C(=C/c2ccc([N+](=O)[O-])cc2)COc2ccc(O)c(O)c21"
measuredattribute = "log10 TGI"
numericresult = 0.55

[[record]]
compound = "COc1cc2nc(-c3ccc(C(F)(F)F)cc3)cc(OCCCN3CCC(O)CC3)c2cc1OC"
measuredattribute = "log10 TGI"
numericresult = 1.26

[[record]]
compound = "O=c1n(CC2CO2)c(=O)n(CC2CO2)n1CC1CO1 (stereo not given)"
measuredattribute = "log10 TGI"
numericresult = 1.61


====

- Test system: U251 CNS
- experimentNotes: NCI tumour cell line growth inhibition, 48 h
measuredAttribute: TGI (µM)

[[record]]
compound = "CCN(CC)CC(C(=O)Nc1c(C)cccc1C)/C(C)=N\\NC(=O)C[N+](C)(C)C (stereo not given)"
qualifier = ">"
numericresult = 100

[[record]]
compound = "O=C1NC(N/N=C/c2ccccc2)=N/C1=C\\c1ccco1"
qualifier = "="
numericresult = 68.4

[[record]]
compound = "COC(=O)Nc1nc2ccc(S(=O)c3ccccc3)cc2[nH]1 (stereo not given)"
qualifier = ">"
numericresult = 100

[[record]]
compound = "O=C1OCN(c2ccccc2)C12CCN(Cc1ccccc1)CC2"
qualifier = "="
numericresult = 31.5

[[record]]
compound = "COc1cc(NC(C)c2ccc3c(c2)OCCO3)cc(OC)c1OC (stereo not given)"
qualifier = "="
numericresult = 94.1

[[record]]
compound = "Nc1ccccc1-c1noc(=O)[nH]1"
qualifier = ">"
numericresult = 100

[[record]]
compound = "CCOC(=O)C(Sc1ccccc1)c1c(OC)cc(=O)oc1/C=[N+](/[O-])c1ccc(N(C)C)cc1 (stereo not given)"
qualifier = "="
numericresult = 60.7

[[record]]
compound = "C/C=C/C(C#N)(/C=C/c1ccccc1)OP1(=O)OC(c2ccccc2)C(C)N1C (stereo not given)"
qualifier = "="
numericresult = 32.8

[[record]]
compound = "NC1CCC(Nc2nc(NCc3ccc(-c4ccco4)nc3)c3ncn(C4CCCC4)c3n2)CC1 (stereo not given)"
qualifier = "="
numericresult = 12.6

[[record]]
compound = "Cc1ccc(Nc2nc(=O)c3c4ccccc4n(C(=O)OC(C)(C)C)c3s2)cc1"
qualifier = ">"
numericresult = 100


====

- System: T-47D breast
- experimentNotes: NCI tumour cell line growth inhibition, 48 h
Quick reference: TGI of the listed items.
measuredAttribute: TGI

[[record]]
molecule = "Clc1cccc(Cc2cn3cc(-c4ccccc4)nc3s2)c1Cl"
result = "> 100 µM"

[[record]]
molecule = "COc1cccc2c1C(=O)C1=C(C2=O)C(O)CC(C)(C)O1 (centres undefined)"
result = "> 100 µM"

[[record]]
molecule = "C/C(=C\\CO)CC/C=C(\\C)CNc1c(F)c(F)c(F)c(F)c1F"
result = "> 100 µM"

[[record]]
molecule = "CCCCCCCC(=O)SCC/C=C/[C@@H]1CC(=O)NCc2cccc(n2)C2=N[C@@](C)(CS2)C(=O)N[C@@H](C(C)C)C(=O)N1"
result = "3 µM"


====

- System: KM12 colon
- experimentNotes: NCI tumour cell line growth inhibition, 48 h
measuredAttribute: GI50

[[record]]
compound = "O=C(CCl)N1c2ccccc2Oc2ccc3ccccc3c21"
measuredattribute = "GI50"
result = "1.8 µM"

[[record]]
compound = "CCCCCCCC(=O)SCC/C=C/[C@@H]1CC(=O)NCc2cccc(n2)C2=N[C@@](C)(CS2)C(=O)N[C@@H](C(C)C)C(=O)N1"
measuredattribute = "GI50"
result = "1.21 µM"

[[record]]
compound = "CC1=C(C(=O)Nc2ccc(F)c(Cl)c2)C(c2ccc(Cl)cc2)NC(=O)N1 (stereo not given)"
measuredattribute = "GI50"
result = "24.2 µM"

[[record]]
compound = "COC(=O)Nc1nc2ccc(S(=O)c3ccccc3)cc2[nH]1 (stereo not given)"
measuredattribute = "GI50"
result = "4.48 µM"

[[record]]
compound = "Cc1cnc(NC(=O)C(Cc2ccccc2)NC(=O)c2ccccc2)s1 (stereo not given)"
measuredattribute = "GI50"
result = "3.82 µM"

[[record]]
compound = "CCOC(=O)Nc1nc2ccc(OCC)cc2s1"
measuredattribute = "GI50"
result = "3.31 µM"

[[record]]
compound = "Cn1ccnc1C(=O)/C=C/c1ccc(CC(=O)Nc2ccc(Br)cc2)cc1"
measuredattribute = "GI50"
result = "2.66 µM"

[[record]]
compound = "COc1c2ccoc2c(/C=C/C=O)c2oc(-c3ccccc3)cc(=O)c12"
measuredattribute = "GI50"
result = "16.5 µM"

[[record]]
compound = "CNC(=O)c1cc(Oc2ccc3nc(NC(=O)Nc4ccc(Cl)c(C(F)(F)F)c4)sc3c2)ccn1"
measuredattribute = "GI50"
result = "3.41 µM"

[[record]]
compound = "Fc1ccc(Nc2ncnc3ccc(-c4cnc5[nH]ccc5c4)cc23)cc1Cl"
measuredattribute = "GI50"
result = "4.71 µM"


====

- System: UACC-62 melanoma
- experimentNotes: NCI tumour cell line growth inhibition, 48 h
Quick reference: TGI of the listed items.
measuredAttribute: TGI

[[record]]
compound = "CCNC1C2(CCCCC2)NC(=O)C12CCCCC2 (centres undefined)"
measuredattribute = "TGI"
result = "> 100 µM"

[[record]]
compound = "c1ccc(C(C2=Nc3cccc4cccc(c34)N2)c2ccccc2)cc1"
measuredattribute = "TGI"
result = "32.8 µM"

[[record]]
compound = "O=C1N(C2CCCCC2)C(=O)N1C1CCCCC1"
measuredattribute = "TGI"
result = "1.9 µM"

[[record]]
compound = "CS(=O)(=O)OCCCCOS(=O)(=O)CF"
measuredattribute = "TGI"
result = "> 100 µM"

[[record]]
compound = "C=CC[C@H]1O[Si](C(C)(C)C)(C(C)(C)C)[C@H](C)[C@H]1C"
measuredattribute = "TGI"
result = "> 100 µM"

[[record]]
compound = "C/C(=C\\CO)CC/C=C(\\C)CNc1c(F)c(F)c(F)c(F)c1F"
measuredattribute = "TGI"
result = "37.9 µM"

[[record]]
compound = "CC1OC(OC2C(O[C@H]3CC[C@@H]4C(=CC[C@@H]5[C@@]4(C)C(=O)C[C@]4(C)[C@@H]([C@H](C)CC[C@@H](O)C(C)(C)O)CC[C@@]54C)C3(C)C)OC(CO)C(O)C2O)C(O)C(O)C1O (some centres undefined)"
measuredattribute = "TGI"
result = "> 100 µM"

[[record]]
compound = "CC(=O)Nc1oc(C)c(C)c1S(=O)(=O)c1ccc(Cl)cc1"
measuredattribute = "TGI"
result = "> 100 µM"

[[record]]
compound = "O=C(OCc1ccccc1)N(CCCCN(CCCNC(=O)C(F)(F)F)C(=O)OCc1ccccc1)CCCNC(=O)C(F)(F)F"
measuredattribute = "TGI"
result = "> 100 µM"


====

- Tested on: XF 498 CNS
- experimentNotes: NCI tumour cell line growth inhibition, 48 h
measuredAttribute: TGI

[[record]]
molecule = "O=C(N/C(=C\\c1cc(Cl)ccc1Cl)c1nc2[nH]c(=S)[nH]c(=O)c2[nH]1)c1ccccc1"
system = "XF 498 CNS"
result = "> 100 µM"

[[record]]
molecule = "COc1cc2cnc3c4cc(OC(C)C)c(OC)cc4ccc3c2cc1OC"
system = "XF 498 CNS"
result = "> 100 µM"

[[record]]
molecule = "COc1ccc(/C=C\\c2cc(OC)c3c(c2)OCO3)c(O)c1O"
system = "XF 498 CNS"
result = "26.6 µM"

[[record]]
molecule = "S=C1NCCN1"
system = "XF 498 CNS"
result = "> 100 µM"

[[record]]
molecule = "CC(C)=CCCc1c(C)ccc2c1C(=O)C(=O)C(C(C)C)=C2"
system = "XF 498 CNS"
result = "7.15 µM"

[[record]]
molecule = "CCN(CC)CC(C(=O)Nc1c(C)cccc1C)/C(C)=N\\NC(=O)C[N+](C)(C)C (centres undefined)"
system = "XF 498 CNS"
result = "> 100 µM"

[[record]]
molecule = "COc1ccccc1NC(=O)CC(=O)n1nc(C)c(N=Nc2ccccc2C(=O)O)c1C"
system = "XF 498 CNS"
result = "> 100 µM"

[[record]]
molecule = "O=C(CSC(=S)N1CCCCC1)Nc1nc2c(s1)CCCC2"
system = "XF 498 CNS"
result = "71.3 µM"

[[record]]
molecule = "CCCCCCNC(=O)C(C)C1CCC2(C)C=CC(=O)C(C)=C2C1O (centres undefined)"
system = "XF 498 CNS"
result = "> 100 µM"

